tgt: human TAS2R4 (Homo sapiens, UniProt Q9NYW5)
Construct: expressed in transfected cells; host or cells: HEK293T-Gα16gust44
Sequence (Q9NYW5 whole entry): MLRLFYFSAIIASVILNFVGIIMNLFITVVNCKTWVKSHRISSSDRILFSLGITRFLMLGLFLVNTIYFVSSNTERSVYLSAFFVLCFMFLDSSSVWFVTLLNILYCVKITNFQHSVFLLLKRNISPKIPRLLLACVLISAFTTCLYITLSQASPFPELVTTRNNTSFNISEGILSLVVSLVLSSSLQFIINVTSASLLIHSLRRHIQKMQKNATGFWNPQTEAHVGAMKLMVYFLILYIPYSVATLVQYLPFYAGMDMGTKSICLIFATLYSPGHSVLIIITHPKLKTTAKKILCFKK
protocol_summary: Calcium imaging assay (FLIPR), HEK293T-Gα16gust44 cells transfected with human TAS2R4; further: test concentration or dose not given here
Format: cell-based
test_conditions: Time (s) 120.781 (TCA, TLCA: 120.782)
Please respond with reported RLU, fluorescence trace for every item in the list.
Express it in RLU; write the number only.

Return RLU, fluorescence trace for the following molecule: C[C@H](CCC(=O)O)[C@H]1CC[C@H]2[C@@H]3[C@H](O)C[C@@H]4C[C@H](O)CC[C@]4(C)[C@H]3C[C@H](O)[C@]12C
488.175

Return RLU, fluorescence trace for the following molecule: C[C@H](CCC(=O)NCCS(=O)(=O)O)[C@H]1CC[C@H]2[C@@H]3[C@H](O)C[C@@H]4C[C@H](O)CC[C@]4(C)[C@H]3C[C@H](O)[C@]12C
602.866

Return RLU, fluorescence trace for the following molecule: C[C@H](CCC(=O)NCC(=O)O)[C@H]1CC[C@H]2[C@@H]3[C@H](O)C[C@@H]4C[C@H](O)CC[C@]4(C)[C@H]3C[C@H](O)[C@]12C
507.386

All figures here come from paper PMC10247784.
